# credit: paper PMC6792352

METHOD DESCRIPTION: in vitro
RUN CONDITIONS: rat, gh3-tre-luc cells, AC50 (uM) modified / 1000
Exercise: state measured CC50 at 24 h for each of the molecules provided.

[
  {
    "MOLECULE": "C[C@H](O)CN(C)C [(S)-(+)-1-Dimethylamino-2-propanol]",
    "CC50 at 24 h": "> 50 µM"
  },
  {
    "MOLECULE": "CCC/C(=N\\OCC)C1=C(O)CC(CC(C)SCC)CC1=O (stereo not drawn)",
    "CC50 at 24 h": "> 90 µM"
  },
  {
    "MOLECULE": "CCC(C(=O)OCCN(CC)CC)c1ccccc1 (stereo not drawn) [Butetamate]",
    "CC50 at 24 h": "> 50 µM"
  },
  {
    "MOLECULE": "Oc1ccc(C2(c3ccc(O)cc3)c3ccccc3-c3ccccc32)cc1",
    "CC50 at 24 h": "28.7 µM"
  },
  {
    "MOLECULE": "CCCC(C)C(O)CC (stereo not drawn)",
    "CC50 at 24 h": "> 90 µM"
  }
]

Query: CC50 at 24 h; subject: "CCCCCCCCCCCCCCCCN(C)C"
> 5 µM

====

METHOD DESCRIPTION: in vitro
RUN CONDITIONS: rat, gh3-tre-luc cells, AC50 (uM) modified / 1000
REPORTED PROPERTY: CC50 at 24 h

Example results:
[
  {
    "MOLECULE": "O=C(NC(=O)c1c(F)cccc1F)Nc1cc(Cl)c(OC(F)(F)C(F)C(F)(F)F)cc1Cl (centres unmarked)",
    "CC50 at 24 h": "> 90 µM"
  },
  {
    "MOLECULE": "CC(C)(CO)C(O)C(=O)NCCCO (centres unmarked)",
    "CC50 at 24 h": "> 90 µM"
  },
  {
    "MOLECULE": "N#CC1(O)CCCCC1 [Cyclohexanone cyanohydrin]",
    "CC50 at 24 h": "> 90 µM"
  },
  {
    "MOLECULE": "C1CCCC1",
    "CC50 at 24 h": "> 90 µM"
  },
  {
    "MOLECULE": "CCCC1CCC(=O)O1 (centres unmarked) [1,4-Heptanolide]",
    "CC50 at 24 h": "> 90 µM"
  }
]

# return CC50 at 24 h for each item in the list
1. CCNC(=O)[C@@H](C)OC(=O)Nc1ccccc1 [Carbetamide]
2. CCC(=O)c1c(O)cc(O)cc1O

["> 90 µM", "> 50 µM"]

For every record below, what is its CC50 at 24 h?
1. N#CCCSCCC#N
2. CC(C)Nc1nc(N)nc(Cl)n1
3. c1cc(N(CC2CO2)CC2CO2)ccc1OCC1CO1 (centres unmarked)
4. CC(C)(C)C1CCCCC1O (centres unmarked)

> 90 µM
> 90 µM
30.4 µM
> 90 µM

====

METHOD DESCRIPTION: in vitro
RUN CONDITIONS: rat, gh3-tre-luc cells, AC50 (uM) modified / 1000
Please respond with reported CC50 at 24 h for every item in the list.

Past entries and their recorded results:
[
  {
    "COMPOUND": "C=C1CC[C@H](O)C/C1=C/C=C1\\CCC[C@]2(C)[C@@H]([C@H](C)CCCC(C)C)CC[C@@H]12",
    "CC50 at 24 h": "44.3 µM"
  },
  {
    "COMPOUND": "NC(=O)N1C(=O)/C(=C(\\O)c2cccs2)c2cc(Cl)ccc21",
    "CC50 at 24 h": "41.8 µM"
  },
  {
    "COMPOUND": "Brc1cc(-c2ccc(Br)c(Br)c2Br)cc(Br)c1Br",
    "CC50 at 24 h": "> 50 µM"
  },
  {
    "COMPOUND": "CC(C)S",
    "CC50 at 24 h": "> 90 µM"
  },
  {
    "COMPOUND": "NCCN1CCNCC1",
    "CC50 at 24 h": "> 90 µM"
  }
]

List CC50 at 24 h for every entry below, keeping the order given.
1. CCc1ccc2c(c1)C(=O)c1ccccc1C2=O
2. CC(CO)(CO)[N+](=O)[O-]
3. OCC(O)[C@@H](O)[C@H](O)[C@H](O)CO[C@H]1O[C@H](CO)[C@@H](O)[C@H](O)[C@H]1O (some centres unmarked)
4. CCN1CN(CC)CN(CC)C1 [1,3,5-Triethylhexahydro-s-triazine]
5. CCCCCCCCCCCCCCCCCBr
6. CCCC(=O)c1ccccc1
7. O=P(c1ccccc1)(c1ccccc1)c1ccccc1 [Triphenylphosphine oxide]
8. CCC(=O)OCc1ccc(OC)cc1 [Anisyl propionate]

1: > 90 µM; 2: > 90 µM; 3: > 90 µM; 4: > 90 µM; 5: > 20 µM; 6: > 90 µM; 7: > 90 µM; 8: > 90 µM
